- test name: in vitro
- conditions: male, Sprague-Dawley, rat, 20 min, 1 μM
So basically: Concentration (μM) of analyte PEA, 20 min at 0.2 µM or higher? That is 1 (yes). Lower than 0.2 µM? That is 0 (no).

Problem: Does Concentration (μM) of analyte PEA, 20 min meet or surpass 0.2 µM for CCCCCCCCCCCCCCCC(=O)NCCOC(=O)CCC(=O)OCC(O)CO (stereo not shown) ?
Result: 1 (yes)

* * *

Form field: % Remaining of Initial (n = 1), 20 min (one value per entry).
- test name: in vitro
- conditions: male, CD-1, mouse, s9, 20 min, 1 μM
// units = %; emit number, no label

1) CCCCC/C=C\C/C=C\CCCCCCCC(=O)OCCNC(=O)CCCCCCCCCCCCCCC | 69

// next entry
Problem: Let me know recorded % Remaining of Initial (n = 1), 20 min for `CC/C=C\C/C=C\C/C=C\C/C=C\C/C=C\CCCC(=O)OCCNC(=O)CCCCCCCCCCCCCCC` , thanks.
Result: 67

* * *

- test name: in vitro
- conditions: male, Beagle, dog, microsomes, 1 h, 1 μM
measure name: % Remaining of Initial, 60 min (%)
Numbers only here, please. The scale is %.

Problem: Tell me its % Remaining of Initial, 60 min given `CC/C=C\C/C=C\C/C=C\C/C=C\C/C=C\CCCC(=O)OCCNC(=O)CCCCCCCCCCCCCCC` as the entry.
Result: 67

Problem: Note down % Remaining of Initial, 60 min recorded for `CCCCC/C=C\C/C=C\CCCCCCCC(=O)OCCNC(=O)CCCCCCCCCCCCCCC`
Result: 77

* * *

- test name: in vitro
- conditions: both, human, s9, CLint (mL/min/mg protein)
measure name: microsomal CLint at 1 μM (µL/min/mg)
Express it in µL/min/mg; write the number only.

1) CCCCCCCCCCCCCCCC(=O)NCCOC(=O)CCC(=O)OCC(O)CO (stereo not shown) | 131

Now consider the entry below.
Problem: State its microsomal CLint at 1 μM: `CC/C=C\C/C=C\C/C=C\C/C=C\C/C=C\CCCC(=O)OCCNC(=O)CCCCCCCCCCCCCCC`
Result: 21.6

* * *

- test name: Pharmacokinetics of PEA after intravenous administration in male Sprague-Dawley rats
- Type: in vivo, Sprague-Dawley rat
- conditions: male, Sprague-Dawley, rat, in vivo, iv, 1 mg/kg, CL, individual rats
measure name: clearance (mL/min/kg)
Output spec: scalar in mL/min/kg, unitless text.

Problem: Supply recorded clearance for CCCCCCCCCCCCCCCC(=O)NCCO [PEA, palmitoylethanolamide] here.
Result: 290

* * *

- test name: Simulated intestinal fluid (SIF) stability in the presence of various enzymes
- Type: in vitro ADME
- conditions: SIF + Elastase, 120 min, 1 μM
Measured % Remaining of Initial (n = 1) accompanies every entry in the list below.

Worked set:
1) CCCCCCCCCCCCCCCC(=O)NCCOC(=O)CCC(=O)OCC(COC(=O)CCC)OC(=O)CCC (stereo not drawn) | 17%
2) CCCCC/C=C\C/C=C\CCCCCCCC(=O)OCC(COC(=O)CCC(=O)OCCNC(=O)CCCCCCCCCCCCCCC)OC(=O)CCCCCCC/C=C\C/C=C\CCCCC (stereo not drawn) | 5.0%

Now for a further compound.
Problem: Provide only the value of recorded % Remaining of Initial (n = 1) for `CCCCCCCCCCCCCCCC(=O)NCCOC(=O)CCC(=O)OC[C@H]1O[C@@](CO)(O[C@H]2O[C@H](CO)[C@@H](O)[C@H](O)[C@H]2O)[C@@H](O)[C@@H]1O`
Result: 3.5%

* * *

Measured % Remaining of Initial (n = 1), 20 min of individual entries
- test name: in vitro
- conditions: male, CD-1, mouse, s9, 20 min, 1 μM

Below, each entry is followed by its recorded % Remaining of Initial (n = 1), 20 min result.
1) CC/C=C\C/C=C\C/C=C\C/C=C\C/C=C\CCCC(=O)OCCNC(=O)CCCCCCCCCCCCCCC | 50%
2) CCCCCCCCCCCCCCCC(=O)NCCOC(=O)CCC(=O)OCC(O)CO (stereo not shown) | <1.0%
3) CCCCCCCCCCCCCCCC(=O)NCCOC(=O)CCC(=O)OCC(COC(=O)CCCCCCC)OC(=O)CCCCCCC (stereo not shown) [Compound I-3, PEA-Succinate-Glycerol-Di-Caprylic] | 61%
4) CCCCC/C=C\C/C=C\CCCCCCCC(=O)OCCNC(=O)CCCCCCCCCCCCCCC | 87%
5) CCCCCCCCCCCCCCCC(=O)NCCOC(=O)CCC | <1.0%
6) CCCCCCCCCCCCCCCC(=O)NCCOC(=O)CCC(=O)OCC(COC(=O)CCC)OC(=O)CCC (stereo not shown) | <1.0%

Problem: Hello, please tell me recorded % Remaining of Initial (n = 1), 20 min for this one: `CCCCCCCCCCCCCCCC(=O)NCCOC(=O)CCC(=O)OC[C@H]1O[C@@](CO)(O[C@H]2O[C@H](CO)[C@@H](O)[C@H](O)[C@H]2O)[C@@H](O)[C@@H]1O`
Result: <1.0%

* * *

- test name: in vitro
- conditions: male, CD-1, mouse, microsomes, 0.5 h, 1 μM
- Method: Reaction mixture, minus cofactors, was prepared as described below. Test article was added into the reaction mixture at a final concentration of 1 μM. […] Half-lives were calculated using GraphPad software, fitting to a single-phase exponential decay equation. Reaction mixture, minus cofactors, was prepared as described below. […] Half-lives were calculated using GraphPad software, fitting to a single-phase exponential decay equation. […]
measure name: % Remaining of Initial, 30 min (%)
Field format: number, assumed %, no unit text.

1) CCCCCCCCCCCCCCCC(=O)NCCOC(=O)CCC(=O)OCC(COC(=O)CCCCCCC)OC(=O)CCCCCCC (stereo not shown) [Compound I-3, PEA-Succinate-Glycerol-Di-Caprylic] | 60
2) CCCCC/C=C\C/C=C\CCCCCCCC(=O)OCCNC(=O)CCCCCCCCCCCCCCC | 73

Problem: Supply recorded % Remaining of Initial, 30 min for `CC/C=C\C/C=C\C/C=C\C/C=C\C/C=C\CCCC(=O)OCCNC(=O)CCCCCCCCCCCCCCC` here.
Result: 56

* * *

- test name: in vitro
- conditions: male, Sprague-Dawley, rat, 30 min, 1 μM
measure name: Measured concentration of analyte PEA, 30 min

Reference set (3 entries):
1) CCCCCCCCCCCCCCCC(=O)NCCOC(=O)CCC | 0.0083 µM
2) CC/C=C\C/C=C\C/C=C\C/C=C\C/C=C\CCCC(=O)OCCNC(=O)CCCCCCCCCCCCCCC | 0.015 µM
3) CCCCCCCCCCCCCCCC(=O)NCCOC(=O)CCC(=O)OC[C@H]1O[C@@](CO)(O[C@H]2O[C@H](CO)[C@@H](O)[C@H](O)[C@H]2O)[C@@H](O)[C@@H]1O | 0.045 µM

Problem: // Input: `CCCCC/C=C\C/C=C\CCCCCCCC(=O)OCCNC(=O)CCCCCCCCCCCCCCC` . Output its Measured concentration of analyte PEA, 30 min only.
Result: 0.0098 µM

* * *

Recorded measurements of % Remaining of Initial (n = 1), 60 min, one per entry
- test name: Plasma stability (37° C., pH 7.4), rat
- Type: in vitro ADME, Sprague-Dawley rat
- conditions: rat plasma, test article 1 μM, 37° C., pH 7.4, 60 min
The figure you give is taken to be in %; do not add the unit.

Solved entries:
1. CCCCCCCCCCCCCCCC(=O)NCCOC(=O)CCC(=O)OCC(COC(=O)CCCCCCC)OC(=O)CCCCCCC (stereo not shown) [Compound I-3, PEA-Succinate-Glycerol-Di-Caprylic] | 76
2. CC/C=C\C/C=C\C/C=C\C/C=C\C/C=C\CCCC(=O)OCCNC(=O)CCCCCCCCCCCCCCC [Compound I-5] | 87

Please turn your attention to the following entry.
Problem: Fill in % Remaining of Initial (n = 1), 60 min for record CCCCCCCCCCCCCCCC(=O)NCCOC(=O)CCC [Compound I-2]
Result: 46

* * *

- test name: Pharmacokinetics of PEA after intravenous administration in male Sprague-Dawley rats
- Format: in vivo, Sprague-Dawley rat
- conditions: male, Sprague-Dawley, rat, in vivo, iv, 1 mg/kg, AUClast, individual rats
measure name: AUC(0-t) (ng·h/mL)
Write the value in ng·h/mL as a bare number.

Problem: # return recorded AUC(0-t) for entry CCCCCCCCCCCCCCCC(=O)NCCO [PEA, palmitoylethanolamide]
Result: 53.3

* * *

// values below are reported % Remaining of Initial (n = 1)
- test name: Simulated intestinal fluid (SIF) stability in the presence of various enzymes
- Type: in vitro ADME
- conditions: SIF + Chymotrypsin, 30 min, 1 μM
API: value field is a number in %; no unit string.

Worked examples, 6 compounds total:
1. CCCCCCCCCCCCCCCC(=O)NCCOC(=O)CCC(=O)OCC(COC(=O)CCC)OC(=O)CCC (centres unmarked) | 63
2. CC/C=C\C/C=C\C/C=C\C/C=C\C/C=C\CCCC(=O)OCCNC(=O)CCCCCCCCCCCCCCC | 59
3. CCCCC/C=C\C/C=C\CCCCCCCC(=O)OCC(COC(=O)CCC(=O)OCCNC(=O)CCCCCCCCCCCCCCC)OC(=O)CCCCCCC/C=C\C/C=C\CCCCC (centres unmarked) | 67
4. CCCCCCCCCCCCCCCC(=O)NCCOC(=O)CCC | 70
5. CCCCCCCCCCCCCCCC(=O)NCCOC(=O)CCC(=O)OCC(O)CO (centres unmarked) | 24
6. CCCCCCCCCCCCCCCC(=O)NCCOC(=O)CCC(=O)OC[C@H]1O[C@@](CO)(O[C@H]2O[C@H](CO)[C@@H](O)[C@H](O)[C@H]2O)[C@@H](O)[C@@H]1O | 23

Problem: Annotate the compound CCCCCCCCCCCCCCCC(=O)NCCOC(=O)CCC(=O)OCC(COC(=O)CCCCCCC)OC(=O)CCCCCCC (centres unmarked) [Compound I-3, PEA-Succinate-Glycerol-Di-Caprylic] with its measured % Remaining of Initial (n = 1).
Result: 84

Problem: Given the compound `CCCCC/C=C\C/C=C\CCCCCCCC(=O)OCCNC(=O)CCCCCCCCCCCCCCC` , write its reported % Remaining of Initial (n = 1).
Result: 99
